The measured values listed here are drawn from patent US8354502B2.

# test_system: angiotensin-converting enzyme (ACE) (Oryctolagus cuniculus, UniProt P12822)
# Sequence (P12822 34-1310): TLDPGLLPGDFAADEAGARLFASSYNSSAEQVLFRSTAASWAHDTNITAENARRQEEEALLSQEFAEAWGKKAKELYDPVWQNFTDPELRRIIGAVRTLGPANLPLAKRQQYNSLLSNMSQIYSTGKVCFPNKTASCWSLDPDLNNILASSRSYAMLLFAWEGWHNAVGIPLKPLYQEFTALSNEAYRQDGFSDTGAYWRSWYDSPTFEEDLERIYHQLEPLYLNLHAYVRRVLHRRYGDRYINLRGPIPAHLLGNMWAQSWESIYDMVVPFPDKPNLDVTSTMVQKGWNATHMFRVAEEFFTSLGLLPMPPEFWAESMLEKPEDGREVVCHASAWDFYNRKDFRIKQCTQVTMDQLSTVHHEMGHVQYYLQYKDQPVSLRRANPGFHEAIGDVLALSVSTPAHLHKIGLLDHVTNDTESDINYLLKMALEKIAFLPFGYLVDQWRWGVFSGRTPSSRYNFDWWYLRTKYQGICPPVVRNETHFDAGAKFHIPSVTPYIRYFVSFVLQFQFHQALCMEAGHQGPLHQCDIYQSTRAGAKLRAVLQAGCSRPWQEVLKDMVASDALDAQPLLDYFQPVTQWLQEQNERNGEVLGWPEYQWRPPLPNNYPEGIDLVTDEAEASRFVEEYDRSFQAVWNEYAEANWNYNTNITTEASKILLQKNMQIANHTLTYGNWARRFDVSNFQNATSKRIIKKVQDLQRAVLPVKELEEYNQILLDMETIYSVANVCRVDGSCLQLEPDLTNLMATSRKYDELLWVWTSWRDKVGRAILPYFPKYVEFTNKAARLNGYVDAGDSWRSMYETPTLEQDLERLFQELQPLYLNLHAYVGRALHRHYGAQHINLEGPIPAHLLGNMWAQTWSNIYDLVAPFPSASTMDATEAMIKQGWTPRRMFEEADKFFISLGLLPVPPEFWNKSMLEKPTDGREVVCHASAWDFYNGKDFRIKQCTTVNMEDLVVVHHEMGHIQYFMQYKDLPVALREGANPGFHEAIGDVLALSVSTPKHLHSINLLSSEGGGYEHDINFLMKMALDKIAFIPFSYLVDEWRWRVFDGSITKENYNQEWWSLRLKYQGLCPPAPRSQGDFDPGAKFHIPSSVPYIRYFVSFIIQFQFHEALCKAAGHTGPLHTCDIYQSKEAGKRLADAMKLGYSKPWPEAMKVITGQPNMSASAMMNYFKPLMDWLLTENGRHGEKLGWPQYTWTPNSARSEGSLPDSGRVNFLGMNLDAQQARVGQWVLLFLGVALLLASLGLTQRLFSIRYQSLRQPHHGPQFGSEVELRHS
# assay_procedure: Angiotensin-converting enzyme inhibitory activity (ACEIa) in vitro
# Format: biochemical
# recorded_conditions: read-out: ACE-inhibitory activity CI50; synthetic peptides of bovine casein permeate fractions
Where no end group is shown, it is not given here.
quantity_kind: IC50

Form field - read-out: IC50; system: angiotensin-converting enzyme (ACE) (Oryctolagus cuniculus, UniProt P12822); submitted item: AYFYPEL [SEQ. ID. No. 13, AYFYPEL] 7.5 µM

###

# test_system: angiotensin-converting enzyme (ACE) (Oryctolagus cuniculus, UniProt P12822)
# assay_procedure: Angiotensin-converting enzyme inhibitory activity (ACEIa) in vitro
# Type: biochemical
# recorded_conditions: read-out: ACE-inhibitory activity CI50; synthetic peptides of FC1 and FD1 subfractions
Where no end group is shown, it is not given here.
IC50 values by entry
Respond with the bare value in µM.

{"substance": "PYVRYL [SEQ. ID. No. 7, PYVRYL]", "IC50 [µM]": 1.94}

Would you kindly look at the next entry?
Would you kindly share the measured IC50 for LKKISQ [SEQ. ID. No. 1, LKKISQ] ? 2.1
